# Test system: Yap1 mRNA
# MEASUREMENT NOTES: Antisense inhibition of human Yap1 in SNU-449 cells by modified oligonucleotides, single dose (Example 5, RTS36584)
# Format: cell-based
# CONDITION INFO: Table 41; SNU-449 cells, 10,000 cells per well, free uptake, 2,000 nM modified oligonucleotide, approximately 48 hours; RTS36584; normalized to RIBOGREEN; Yap1 mRNA relative to untreated control cells
Strand notation (5' to 3'): a small letter for the sugar, then the base; units joined by * are phosphorothioate-linked, units joined directly phosphodiester-linked; [ ] holds rarer units or linkages, { } end groups; capitals alone tell only the bases. e = 2'-O-(2-methoxyethyl) (MOE); k = constrained ethyl (cEt); [5mC] = 5-methylcytosine; d = 2'-deoxy (DNA)
PROPERTY: YAP1 (% UTC)
Answers are plain numbers, in % UTC.

// assay Yap1 mRNA, entry 1198789 (antisense kA*eA*kA*dG*dT*dG*dT*dA*dT*dG*dT*d[5mC]*eA*eG*kA*kA) [Compound 1198789] , YAP1 (% UTC) value = 22

// assay Yap1 mRNA, entry 1198666 (antisense kG*kT*dG*d[5mC]*dT*dT*dT*dG*dG*dA*dA*dG*kA*eT*k[5mC]*eT) [Compound 1198666] , YAP1 (% UTC) value = 44

More entries:
// assay Yap1 mRNA, entry 1198651 (kT*kT*dA*d[5mC]*dA*dT*dT*dA*dG*dG*dA*dA*k[5mC]*eA*kA*eG; antisense) [Compound 1198651] , YAP1 (% UTC) value = 94

====

# System: Yap1 mRNA
# MEASUREMENT NOTES: Antisense inhibition of human Yap1 in A-431 cells by cEt gapmers, single dose (Example 2, RTS4814)
# Assay type: cell-based
# CONDITION INFO: Table 19; A-431 cells, 5,000 cells per well, free uptake, 2,000 nM modified oligonucleotide, approx. 48 hours; RTS4814; normalized to RIBOGREEN; Yap1 mRNA as percent of untreated control
Strand notation (5' to 3'): a small letter for the sugar, then the base; units joined by * are phosphorothioate-linked, units joined directly phosphodiester-linked; [ ] holds rarer units or linkages, { } end groups; capitals alone tell only the bases. k = constrained ethyl (cEt); [5mC] = 5-methylcytosine; d = 2'-deoxy (DNA)
For each of the substances below, state its YAP1 (% UTC).
Answers are plain numbers, in % UTC.

Some solved entries appear below for comparison.
For 1075429 (antisense k[5mC]*kT*kT*dT*dA*d[5mC]*dT*dA*dT*d[5mC]*dT*dG*dG*kG*kT*k[5mC]) [Compound 1075429] the substance record lists YAP1 (% UTC) as 23

For 1076069 (kT*k[5mC]*kT*dA*dA*dA*dA*dT*dG*dA*d[5mC]*d[5mC]*dT*kT*kA*kG; antisense) [Compound 1076069] the substance record lists YAP1 (% UTC) as 118

For 1075685 (k[5mC]*kA*kT*dA*dA*dT*d[5mC]*dA*dA*dA*dG*dG*dG*kT*kG*k[5mC]; antisense) [Compound 1075685] the substance record lists YAP1 (% UTC) as 60

For 1074117 (antisense kG*k[5mC]*kG*d[5mC]*d[5mC]*dT*dG*dA*dG*dA*dA*d[5mC]*dT*kT*kT*kT) [Compound 1074117] the substance record lists YAP1 (% UTC) as 87

For 1075173 (antisense k[5mC]*kT*kT*dT*dA*dG*dG*dG*d[5mC]*dA*dA*d[5mC]*dT*kG*kT*kA) [Compound 1075173] the substance record lists YAP1 (% UTC) as 22

Could you now look at the following substance, please?
For 1074597 (antisense kA*kG*kT*dA*dT*dT*d[5mC]*dT*dA*dT*d[5mC]*d[5mC]*dA*kG*kG*kG) [Compound 1074597] the substance record lists YAP1 (% UTC) as 5

====

# Tested on: Yap1 mRNA
# MEASUREMENT NOTES: Dose-dependent inhibition of human Yap1 in A-431 cells (Example 24, 11,000 cells per well, RTS36584, normalized to GAPDH)
# Assay type: cell-based
# CONDITION INFO: 0.2 μM, free uptake, 48 hours, RTS36584, normalized to GAPDH
Think of 80 % UTC as a floor: if Yap1 mRNA, % UTC stands on it or above, it is Criterion met; beneath it, Criterion not met.

Recorded results for 3 substances are shown here.
Query :: Check if Yap1 mRNA, % UTC >= 80 % UTC (inclusive). Item: 1198605 (GTAATATTGCAATCTG; modified gapmer, further chemistry not given here) [compound 1198605]
Result :: Criterion not met

Query :: Check if Yap1 mRNA, % UTC >= 80 % UTC (inclusive). Item: 1198728 (TATTAGAGTATGTGGC; modified gapmer, further chemistry not given here) [compound 1198728]
Result :: Criterion met

Query :: Check if Yap1 mRNA, % UTC >= 80 % UTC (inclusive). Item: 958499 (ATTAGAGTATGTGGCA; 3-10-3 cEt gapmer, further chemistry not given here) [compound 958499]
Result :: Criterion met

More entries:
Query :: Check if Yap1 mRNA, % UTC >= 80 % UTC (inclusive). Item: 1198439 (AGTGTATGTCAGAAGA; sugar, 5-methylcytosine, phosphorothioate modifications, further chemistry not given here) [compound 1198439]
Result :: Criterion not met

Query :: Check if Yap1 mRNA, % UTC >= 80 % UTC (inclusive). Item: 1198440 (AAGTGTATGTCAGAAG; cEt, 2'-MOE, 5-methylcytosine, phosphorothioate modifications, further chemistry not given here) [compound 1198440]
Result :: Criterion not met

====

# Tested on: Yap1 mRNA
# MEASUREMENT NOTES: Dose-dependent inhibition of human Yap1 in A-431 cells (Example 8, 10,000 cells per well, RTS4814)
# Type: cell-based
# CONDITION INFO: 500.0 nM; A-431 cells, 10,000 cells per well, free uptake, approximately 48 hours, RTS4814
# Method: Modified oligonucleotides described in the studies above were tested at various doses in A-431 cells. […] After approximately 48 hours, Yap1 mRNA levels were measured as previously described using the Human Yap1 primer-probe set RTS4814. Yap1 mRNA levels were normalized to total RNA content, as measured by RIBOGREEN®. […] IC50s were calculated using a linear regression on a log/linear plot of the data in excel.
Strand notation (5' to 3'): a small letter for the sugar, then the base; units joined by * are phosphorothioate-linked, units joined directly phosphodiester-linked; [ ] holds rarer units or linkages, { } end groups; capitals alone tell only the bases. k = constrained ethyl (cEt); [5mC] = 5-methylcytosine; d = 2'-deoxy (DNA)
PROPERTY: Yap1 mRNA, % UTC (% UTC)
One number for each entry, in % UTC.

Some solved entries appear below for comparison.
For 1075939 (antisense k[5mC]*kT*kT*dG*dA*dA*dT*dA*dT*dA*dT*dG*dG*kG*kT*kT) [compound 1075939] the substance record lists Yap1 mRNA, % UTC as 10

For 1076366 (antisense kA*kT*kT*dT*dA*d[5mC]*dA*dT*dG*dA*dG*dA*dG*kG*kA*kG) [compound 1076366] the substance record lists Yap1 mRNA, % UTC as 8

For 1074450 (kA*k[5mC]*kT*dA*dA*dT*dG*dA*dT*dA*dG*d[5mC]*dA*k[5mC]*kT*kA; antisense) [compound 1074450] the substance record lists Yap1 mRNA, % UTC as 7

For 1074414 (kA*kA*k[5mC]*dT*dG*dT*dG*dA*dA*dA*dG*dA*dG*kG*kT*k[5mC]; antisense) [compound 1074414] the substance record lists Yap1 mRNA, % UTC as 14

For 1074672 (antisense k[5mC]*k[5mC]*kA*dA*dG*dT*dA*dG*d[5mC]*dT*dT*dT*dG*kA*kT*k[5mC]) [compound 1074672] the substance record lists Yap1 mRNA, % UTC as 10

For every listed record, write down its Yap1 mRNA, % UTC.
1. 1076004 (kT*kA*kA*dT*dT*dT*dA*dA*dT*dG*dG*d[5mC]*dT*kT*kG*k[5mC]; antisense) [compound 1076004]
2. 1075983 (kA*kT*k[5mC]*dG*dA*dA*dA*dA*dG*d[5mC]*dA*dA*dA*k[5mC]*kT*k[5mC]; antisense) [compound 1075983]
3. 1076299 (k[5mC]*kG*kT*dT*dA*dT*dA*dA*dA*dG*dA*d[5mC]*d[5mC]*k[5mC]*kA*kA; antisense) [compound 1076299]
4. 1074509 (kT*kG*kT*dT*dA*dT*dG*dT*dT*dT*dG*dG*dG*kT*kG*kT; antisense) [compound 1074509]
5. 1076388 (antisense kG*kA*kA*dA*dT*dA*dT*dT*d[5mC]*dG*dA*dG*dA*kA*kG*kA) [compound 1076388]

Result ::
1. 3
2. 17
3. 13
4. 6
5. 13

For every listed record, write down its Yap1 mRNA, % UTC.
1. 1074537 (k[5mC]*kA*kG*dT*dA*dA*dT*dA*dG*d[5mC]*dT*d[5mC]*dT*kT*kT*k[5mC]; antisense) [compound 1074537]
2. 1076393 (antisense k[5mC]*kT*kT*dT*dA*d[5mC]*dT*dT*dA*d[5mC]*dT*dG*dG*kT*kG*kG) [compound 1076393]
3. 1074447 (kA*kA*kT*dG*dA*dT*dA*dG*d[5mC]*dA*d[5mC]*dT*dA*kG*kG*kA; antisense) [compound 1074447]
4. 1075401 (antisense k[5mC]*kG*kA*dT*dT*dA*dA*dA*dA*d[5mC]*dA*d[5mC]*dT*kG*kG*kT) [compound 1075401]
5. 1074736 (kT*k[5mC]*kA*dG*dT*dA*d[5mC]*dA*dG*dA*dG*dG*dG*k[5mC]*kA*kT; antisense) [compound 1074736]
6. 1075810 (kG*kT*kA*dG*d[5mC]*dA*dA*dT*dA*dG*dA*dG*dT*kA*kA*k[5mC]; antisense) [compound 1075810]
7. 1076174 (kG*kA*kT*dA*dT*dA*dT*dG*dG*dT*dA*dG*d[5mC]*kA*kT*kA; antisense) [compound 1076174]
8. 1074817 (k[5mC]*kT*kG*dA*dA*dT*dA*dT*dT*dG*d[5mC]*d[5mC]*dA*k[5mC]*k[5mC]*k[5mC]; antisense) [compound 1074817]

Result ::
6
8
8
11
7
12
7
13

meta.source: patent US11214803B2
